Each recorded value in this set is attributed to paper PMC5909127.

Listed next: entries and their corresponding ΔH BRD2 BD2 L/V.
Biological target: BRD2 BD2 L/V (Homo sapiens, UniProt P25440, L383V)
Sequence (P25440 344-455 L383V): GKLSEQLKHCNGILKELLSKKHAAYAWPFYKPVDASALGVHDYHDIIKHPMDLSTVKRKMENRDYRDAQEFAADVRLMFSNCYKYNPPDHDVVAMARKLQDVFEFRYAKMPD
Assay: ITC
Type: binding
Details: ITC
Record the value in kcal/mol, omitting the unit from your answer.

# count of solved cases: 4
• CC[C@@H](C(=O)OC)[C@@H]1N=C(c2ccc(Cl)cc2)c2cc(OC)ccc2-n2c(C)nnc21 (relative stereo) [Compound 4] = -8.5
• CCNC(=O)[C@H](CC)[C@@H]1N=C(c2ccc(Cl)cc2)c2cc(OC)ccc2-n2c(C)nnc21 (relative stereo) [Compound 17] = -5.3
• C=CC[C@@H](C(=O)OC)[C@@H]1N=C(c2ccc(Cl)cc2)c2cc(OC)ccc2-n2c(C)nnc21 (racemic) [Compound 5] = -5.9
• CCNC(=O)[C@H](C)[C@@H]1N=C(c2ccc(Cl)cc2)c2cc(OC)ccc2-n2c(C)nnc21 (relative stereo) [Compound 16] = -9.9

Continue with the compound presented below.
Q: Which ΔH BRD2 BD2 L/V reading was recorded for the compound CCNC(=O)[C@H](C)[C@@H]1N=C(c2ccc(Cl)cc2)c2ccc(OC)cc2-n2c(C)nnc21 (relative stereo) [Compound 21] ?
Result: -4.8

###

Experiment: Plasma Half-life
Conditions: BALB/c, mouse, pH 7.4
Listed next: entries and their corresponding half-life at 50 µM.

# count of solved cases: 5
• CC[C@@H](C(=O)OC)[C@@H]1N=C(c2ccc(Cl)cc2)c2ccc(OC)cc2-n2c(C)nnc21 (racemic) [Compound 8] = > 3 h
• CC[C@@H](C(=O)OC(C)(C)C)[C@@H]1N=C(c2ccc(Cl)cc2)c2cc(OC)ccc2-n2c(C)nnc21 [Compound 23] = > 3 h
• C=CC[C@@H](C(=O)OC)[C@@H]1N=C(c2ccc(Cl)cc2)c2cc(OC)ccc2-n2c(C)nnc21 (racemic) [Compound 5] = > 3 h
• COC(=O)CC1N=C(c2ccc(Cl)cc2)c2cc(OC)ccc2-n2c(C)nnc21 (stereo not drawn) [Compound 1] = 0.9 h
• CCNC(=O)[C@H](C)[C@@H]1N=C(c2ccc(Cl)cc2)c2ccc(OC)cc2-n2c(C)nnc21 (relative stereo) [Compound 21] = > 3 h

Q: Which half-life at 50 µM reading was recorded for the compound COC(=O)[C@H](C)[C@@H]1N=C(c2ccc(Cl)cc2)c2cc(OC)ccc2-n2c(C)nnc21 (relative stereo) [Compound 3] ?
Result: > 3 h

###

Assay: Intrinsic Clearance
Settings: mouse liver microsomes
parameter: CL int (ml min^–1 g^–1)
Record the value in ml min^–1 g^–1, omitting the unit from your answer.

# count of solved cases: 5
- COC(=O)CC1N=C(c2ccc(Cl)cc2)c2ccc(OC)cc2-n2c(C)nnc21 (stereo not drawn) [Compound 2]: 1.7
- C=CC[C@@H](C(=O)OC)[C@@H]1N=C(c2ccc(Cl)cc2)c2cc(OC)ccc2-n2c(C)nnc21 (racemic) [Compound 5]: 6.7
- COC(=O)[C@H](C)[C@@H]1N=C(c2ccc(Cl)cc2)c2cc(OC)ccc2-n2c(C)nnc21 (relative stereo) [Compound 3]: 0.7
- Cc1sc2c(c1C)C(c1ccc(Cl)cc1)=N[C@@H](CC(=O)OC(C)(C)C)c1nnc(C)n1-2 [(+)JQ1, reference compound]: 7.5
- CC[C@@H](C(=O)OC(C)(C)C)[C@@H]1N=C(c2ccc(Cl)cc2)c2cc(OC)ccc2-n2c(C)nnc21 [Compound 23]: 30.7

Q: Which CL int reading was recorded for the compound C=CC[C@@H](C(=O)NCC)[C@@H]1N=C(c2ccc(Cl)cc2)c2cc(OC)ccc2-n2c(C)nnc21 (relative stereo) [Compound 18] ?
Result: 2.6
